Where do the numbers come from? From patent US20240228562A1.

Give measured Rat CTGF koff for each item. Keep answers brief.
Target: T1, Rat CTGF (Rattus norvegicus, UniProt Q9R1E9)
T1 construct: purchased R&D Systems
T1 sequence (Q9R1E9 25-347): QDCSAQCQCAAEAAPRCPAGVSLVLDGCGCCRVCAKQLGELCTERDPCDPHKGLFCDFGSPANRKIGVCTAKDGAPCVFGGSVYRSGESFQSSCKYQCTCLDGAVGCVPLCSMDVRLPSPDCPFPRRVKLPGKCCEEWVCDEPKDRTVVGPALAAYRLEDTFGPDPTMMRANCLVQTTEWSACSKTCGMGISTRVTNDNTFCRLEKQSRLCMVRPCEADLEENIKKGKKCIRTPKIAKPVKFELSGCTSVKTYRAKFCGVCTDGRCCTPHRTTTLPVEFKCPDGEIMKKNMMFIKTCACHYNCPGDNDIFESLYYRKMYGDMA
Experiment: SPR binding kinetics and affinity, rat CTGF
Conditions: 25° C., 1:1 binding model
Give the value, in units of s⁻¹, as a plain number.

According to the records, this molecule SEQ ID NO: 35: optimized CTGF-binding hNGAL lipocalin mutein (protein, lipocalin mutein) QDSTSDLIPAPPLSKVPLQQNFQDNQFQGKWYVVGWAGNVKLREDKQPLKMSATIYELKEDKSYDVTEVVFEQKKCHYIIKTFVPGSQPGEFTAGDIKSPPGYTSSLVRVVSTNYNQHAMVFFKKVSQNREFFWITLYGRTKELTSELKENFIRFSKSLGLPENHIVFPVPIDQCIDG displays Rat CTGF koff of 0.000273

SEQ ID NO: 22: optimized CTGF-binding hNGAL lipocalin mutein (protein, lipocalin mutein) QDSTSDLIPAPPLSKVPLQQNFQDNQFQGKWYVVGIAGNAILRVDKQPAKMFATIYELKEDKSYDVTSVRFEAKSCVYTIKTFVPGSQPGEFTAGNIKSAPGQTSTLVRVVSTNYNQHAMVFFKHVSQNREIFVITLYGRTKELTSELKENFIRFSKSLGLPENHIVFPVPIDQCIDG yielded Rat CTGF koff of 4.01e-05

Notebook: SEQ ID NO: 33: optimized CTGF-binding hNGAL lipocalin mutein (protein, lipocalin mutein) QDSTSDLIPAPPLSKVPLQQNFQDNQFQGKWYVVGWAGNAKLREDKQPFKMSATIYELKEDKSYDVTEVVFEQKKCHYIIKTFVPGSQPGEFTEGNYKRRPRLWSDLVRVVSTNYNQHAMVFFKKVHQNREFFWITLYGRTKELTSELKENFIRFSKSLGLPENHIVFPVPIDQCIDG , Rat CTGF koff read as 6.3e-05

// sample SEQ ID NO: 7: parent CTGF-binding hNGAL lipocalin mutein (protein, lipocalin mutein) QDSTSDLIPAPPLSKVPLQQNFQDNQFHGKWYVVGLAGNYGLRTDKRPSKMFATIYELKEDKSYDVTSVRFEQERCHYTIRTFVPGSQPGEFTTGSIKSRPGQTSSLVRVVSTNYNQHAMVFFKSVIQNREYFAITLYGRTKELTSELKENFIRFSKSLGLPENHIVFPVPIDQCIDG , its Rat CTGF koff was 0.00754

Note to self: Rat CTGF koff recorded for SEQ ID NO: 25: parent CTGF-binding hNGAL lipocalin mutein (protein, lipocalin mutein) QDSTSDLIPAPPLSKVPLQQNFQDNQFHGKWYVVGMAGNFRLREDKDPSKMGATIYELKEDKSYNVTQVQFDDKKCLYVIETFVPGSQPGEFTLGAIKSFPGFTSQLVRVVSTNYNQHAMVFFKKVYQNREVFWITLYGRTKELTSELKENFIRFSKSLGLPENHIVFPVPIDQCIDG was 0.00129

SEQ ID NO: 10: optimized CTGF-binding hNGAL lipocalin mutein (protein, lipocalin mutein) QDSTSDLIPAPPLSKVPLQQNFQDNQFQGKWYVVGLAGNAILREDKQPAKMFATIYELKEDKSYDVTSVRFEAKSCSYTIKTFVPGSQPGEFTAGNIKSAPGQTSTLVRVVSTNYNQHAMVFWKSVAGTRESFNIALYGRTKELTSELKENFIRFSKSLGLPENHIVFPVPIDQCIDG has a reported Rat CTGF koff of 4.08e-05
